Entries and their Frequency values follow.
- Test system: human lung tumor tissue
- Applied Conditions: enriched peptide sequences collected from ex vivo panning rounds four to six

Substance: ARRPKLD [Ala-Arg-Arg-Pro-Lys-Leu-Asp]
Frequency: 22
--
Substance: SRAPVAP
Frequency: 2
--
Substance: ARMPPRS
Frequency: 2
--
Substance: SRNPGLLTVR
Frequency: 2
--
Substance: ARPPKGVNWT
Frequency: 3
--
Substance: SRAPNSVQHD
Frequency: 2
--
Substance: SRLPSAGTFQ
Frequency: 2
--
Substance: ARAPGVMPTT
Frequency: 2
--
Substance: ARLPQVELSA
Frequency: 3

Reference source: patent US20090180958A1
